measurement-notes: Absorption and fluorescence emission spectra in DMF
Assay type: physicochemical
reported-conditions: in DMF
Experimental: An absorption spectrum of 2.475 mL of solvent (water, DMF, or PBS) was taken (i.e., absorption spectrum of baseline); then, 25 μL of stock solution was added to reach the final concentration of 1 μM in the cuvette, and the absorption and emission spectra were taken. Baseline of the solvent was subtracted from the obtained absorption spectrum to get the final absorption spectrum of the sample.
Assignment: determine reported ε, extinction coefficient for the given compounds.

For the compound CC[N+](CC)(CC)CCSc1ccc(SCC[N+](CC)(CC)CC)c2c1C1=NC2=Nc2c3c(SCC[N+](CC)(CC)CC)ccc(SCC[N+](CC)(CC)CC)c3c3[n]2[Zn][n]2c(c4c(SCC[N+](CC)(CC)CC)ccc(SCC[N+](CC)(CC)CC)c4c2=NC2=NC(=N3)c3c(SCC[N+](CC)(CC)CC)ccc(SCC[N+](CC)(CC)CC)c32)=N1.[I-].[I-].[I-].[I-].[I-].[I-].[I-].[I-] [C9Zn] , give its measured ε, extinction coefficient value.
134 170 M^–1cm^–1

Identify ε, extinction coefficient associated with the compound CSc1cc2c(cc1SC)C1=Nc3c4cc(SC)c(SC)cc4c4[n]3[Zn][n]3c(c5cc(SC)c(SC)cc5c3=NC2=N1)=NC1=NC(=N4)c2cc(Oc3c(Cn4cc[n+](C)c4)cc(C)cc3Cn3cc[n+](C)c3)c(Oc3c(Cn4cc[n+](C)c4)cc(C)cc3Cn3cc[n+](C)c3)cc21.[I-].[I-].[I-].[I-] [C4Zn]
106 360 M^–1cm^–1

Report ε, extinction coefficient for C[n+]1cccc(Oc2ccc3c(c2)C2=NC3=Nc3c4cc(Oc5ccc[n+](C)c5)ccc4c4[n]3[Zn][n]3c(c5ccc(Oc6ccc[n+](C)c6)cc5c3=NC3=NC(=N4)c4cc(Oc5ccc[n+](C)c5)ccc43)=N2)c1.[I-].[I-].[I-].[I-] [C5Zn-I]
130 860 M^–1cm^–1

Look up ε, extinction coefficient of Cc1cc(Cn2cc[n+](C)c2)c(Oc2c3c(c(C)c(C)[n+]2C)C2=NC3=Nc3c4cc(SC(C)(C)C)c(SC(C)(C)C)cc4c4[n]3[Zn][n]3c(c5cc(SC(C)(C)C)c(SC(C)(C)C)cc5c3=N2)=NC2=NC(=N4)c3cc(SC(C)(C)C)c(SC(C)(C)C)cc32)c(Cn2cc[n+](C)c2)c1.[I-].[I-].[I-] [C2Zn] and report it.
177 880 M^–1cm^–1

----------
measurement-notes: Absorption and fluorescence emission spectra in DMF
Assay type: physicochemical
reported-conditions: in DMF
Assignment: determine reported λF, fluorescence emission maximum for the given compounds.
Answer format: numeric, nm implied, no suffix.

Give the reported λF, fluorescence emission maximum for this compound. O=S(=O)([O-])c1ccc(Oc2cccc3c2C2=Cc4c5cccc(Oc6ccc(S(=O)(=O)[O-])c7cccnc67)c5c5[n]4[Zn][n]4c(c6cccc(Oc7ccc(S(=O)(=O)[O-])c8cccnc78)c6c4=CC3=N2)=CC2=NC(=C5)c3cccc(Oc4ccc(S(=O)(=O)[O-])c5cccnc45)c32)c2ncccc12.[Na+].[Na+].[Na+].[Na+] [A8Zn]
708

Supply λF, fluorescence emission maximum value. Item: O=C([O-])c1cc(C(=O)[O-])cc(-c2cc3c(cc2-c2cc(C(=O)[O-])cc(C(=O)[O-])c2)C2=Nc4c5ccccc5c5[n]4[Zn][n]4c(c6ccccc6c4=NC3=N2)=NC2=NC(=N5)c3ccccc32)c1.[Na+].[Na+].[Na+].[Na+] [A2Zn]
688

Supply recorded λF, fluorescence emission maximum for O=S(=O)([O-])c1ccc2c(c1)-c1nc-2nc2[nH]c(nc3nc(nc4[nH]c(n1)c1ccccc41)-c1ccc(S(=O)(=O)[O-])cc1-3)c1ccc(S(=O)(=O)[O-])cc21.[Na+].[Na+].[Na+] [A9H] here.
703

Find the measured λF, fluorescence emission maximum of C[n+]1cccc(Oc2ccc3c(c2)C2=NC3=Nc3c4cc(Oc5ccc[n+](C)c5)ccc4c4[n]3[Zn][n]3c(c5ccc(Oc6ccc[n+](C)c6)cc5c3=NC3=NC(=N4)c4cc(Oc5ccc[n+](C)c5)ccc43)=N2)c1.[I-].[I-].[I-].[I-] [C5Zn-I] and report it.
682

Check the records and state λF, fluorescence emission maximum for O=S(=O)([O-])c1cc(S(=O)(=O)[O-])c2cc(Oc3cccc4c3C3=NC4=Nc4c5c(Oc6ccc7cc(S(=O)(=O)[O-])cc(S(=O)(=O)[O-])c7c6)cccc5c5[n]4[Zn][n]4c(c6cccc(Oc7ccc8cc(S(=O)(=O)[O-])cc(S(=O)(=O)[O-])c8c7)c6c4=NC4=NC(=N5)c5c(Oc6ccc7cc(S(=O)(=O)[O-])cc(S(=O)(=O)[O-])c7c6)cccc54)=N3)ccc2c1.[Na+].[Na+].[Na+].[Na+].[Na+].[Na+].[Na+].[Na+] [A7Zn]
707

Return λF, fluorescence emission maximum for the following compound: OCc1cc(CO)cc(OCCCCSC2=C(SCCCCOc3cc(CO)cc(CO)c3)C3=Nc4c5ccccc5c5[n]4[Mg][n]4c(c6ccccc6c4=NC4=NC(=N5)c5ccccc54)=NC2=N3)c1 [N2Mg]
687

Could you please provide reported λF, fluorescence emission maximum for C=Cc1c(C)c2cc3nc(cc4[nH]c(cc5nc(cc1[nH]2)C(C)=C5CCC(=O)O)c(CCC(=O)OC)c4C)[C@@]1(C)C3=CC=C(C(=O)OC)[C@H]1C(=O)OC [verteporfin, reference compound] ? Thanks!
696

Indicate its recorded λF, fluorescence emission maximum; the compound in question is O=C([O-])c1cc(Oc2cc3c(cc2Oc2cc(C(=O)[O-])cc(C(=O)[O-])c2)C2=Nc4c5ccccc5c5[n]4[Zn][n]4c(c6ccccc6c4=NC3=N2)=NC2=NC(=N5)c3ccccc32)cc(C(=O)[O-])c1.[Na+].[Na+].[Na+].[Na+] [A1Zn]
682

----------
measurement-notes: Absorption and fluorescence emission spectra in DMF
Type: physicochemical
reported-conditions: in DMF
observable: λA, absorption maximum in the Q-band
Entry format: amount then unit.

Give me measured λA, absorption maximum in the Q-band, please, for this molecule: C[n+]1cccc(Oc2ccc3c(c2)C2=NC3=Nc3c4cc(Oc5ccc[n+](C)c5)ccc4c4[n]3[Zn][n]3c(c5ccc(Oc6ccc[n+](C)c6)cc5c3=NC3=NC(=N4)c4cc(Oc5ccc[n+](C)c5)ccc43)=N2)c1.O=S(=O)(O)O.O=S(=O)(O)O.O=S(=O)([O-])[O-].O=S(=O)([O-])[O-] [C5Zn-SO 4]
674 nm

Provide λA, absorption maximum in the Q-band value for the following molecule: C=Cc1c(C)c2cc3nc(cc4[nH]c(cc5nc(cc1[nH]2)C(C)=C5CCC(=O)O)c(CCC(=O)OC)c4C)[C@@]1(C)C3=CC=C(C(=O)OC)[C@H]1C(=O)OC [verteporfin, reference compound]
690 nm

Write down λA, absorption maximum in the Q-band measured for item Cc1cc(OCc2cn(CCOCCOCCO)nn2)c(Oc2cc3c(cc2Oc2c(OCc4cn(CCOCCOCCO)nn4)cc(C)cc2OCc2cn(CCOCCOCCO)nn2)C2=Nc4c5ccccc5c5[n]4[Zn][n]4c(c6ccccc6c4=NC3=N2)=NC2=NC(=N5)c3ccccc32)c(OCc2cn(CCOCCOCCO)nn2)c1 [N3Zn]
672 nm

Report λA, absorption maximum in the Q-band for CSc1cc2c(cc1SC)C1=Nc3c4cc(SC)c(SC)cc4c4[n]3[Zn][n]3c(c5cc(SC)c(SC)cc5c3=NC2=N1)=NC1=NC(=N4)c2cc(Oc3c(Cn4cc[n+](C)c4)cc(C)cc3Cn3cc[n+](C)c3)c(Oc3c(Cn4cc[n+](C)c4)cc(C)cc3Cn3cc[n+](C)c3)cc21.[I-].[I-].[I-].[I-] [C4Zn]
697 nm

Supply recorded λA, absorption maximum in the Q-band for CC[N+](CC)(CC)CCSc1cc2c(cc1SCC[N+](CC)(CC)CC)C1=Nc3c4cc(SCC[N+](CC)(CC)CC)c(SCC[N+](CC)(CC)CC)cc4c4[n]3[Zn][n]3c(c5cc(SCC[N+](CC)(CC)CC)c(SCC[N+](CC)(CC)CC)cc5c3=NC3=NC(=N4)c4cc(SCC[N+](CC)(CC)CC)c(SCC[N+](CC)(CC)CC)cc43)=NC2=N1.[I-].[I-].[I-].[I-].[I-].[I-].[I-].[I-] [C8Zn] here.
704 nm

Quick one: give measured λA, absorption maximum in the Q-band for C[n+]1cccc(Oc2cc3c(cc2Oc2ccc[n+](C)c2)C2=Nc4c5cc(Oc6ccc[n+](C)c6)c(Oc6ccc[n+](C)c6)cc5c5[n]4[Zn][n]4c(c6cc(Oc7ccc[n+](C)c7)c(Oc7ccc[n+](C)c7)cc6c4=NC4=NC(=N5)c5cc(Oc6ccc[n+](C)c6)c(Oc6ccc[n+](C)c6)cc54)=NC3=N2)c1.[I-].[I-].[I-].[I-].[I-].[I-].[I-].[I-] [C6Zn]
681 nm

Provide one value: measured λA, absorption maximum in the Q-band of O=S(=O)([O-])c1cc(S(=O)(=O)[O-])c2cc(Oc3cccc4c3C3=NC4=Nc4c5c(Oc6ccc7cc(S(=O)(=O)[O-])cc(S(=O)(=O)[O-])c7c6)cccc5c5[n]4[Zn][n]4c(c6cccc(Oc7ccc8cc(S(=O)(=O)[O-])cc(S(=O)(=O)[O-])c8c7)c6c4=NC4=NC(=N5)c5c(Oc6ccc7cc(S(=O)(=O)[O-])cc(S(=O)(=O)[O-])c7c6)cccc54)=N3)ccc2c1.[Na+].[Na+].[Na+].[Na+].[Na+].[Na+].[Na+].[Na+] [A7Zn]
696 nm

State its λA, absorption maximum in the Q-band: Cc1cc(Cn2cc[n+](C)c2)c(Oc2c3c(c(C)c(C)[n+]2C)C2=NC3=Nc3c4cc(SC(C)(C)C)c(SC(C)(C)C)cc4c4[n]3[Zn][n]3c(c5cc(SC(C)(C)C)c(SC(C)(C)C)cc5c3=N2)=NC2=NC(=N4)c3cc(SC(C)(C)C)c(SC(C)(C)C)cc32)c(Cn2cc[n+](C)c2)c1.[I-].[I-].[I-] [C2Zn]
708 nm

Give the reported value of λA, absorption maximum in the Q-band for this record: CC[N+](CC)(CC)CCSc1ccc(SCC[N+](CC)(CC)CC)c2c1C1=NC2=Nc2c3c(SCC[N+](CC)(CC)CC)ccc(SCC[N+](CC)(CC)CC)c3c3[n]2[Zn][n]2c(c4c(SCC[N+](CC)(CC)CC)ccc(SCC[N+](CC)(CC)CC)c4c2=NC2=NC(=N3)c3c(SCC[N+](CC)(CC)CC)ccc(SCC[N+](CC)(CC)CC)c32)=N1.[I-].[I-].[I-].[I-].[I-].[I-].[I-].[I-] [C9Zn]
757 nm

Return reported λA, absorption maximum in the Q-band. Input molecule: O=S(=O)([O-])c1ccc(Oc2ccc3c(c2)C2=Cc4c5ccc(Oc6ccc(S(=O)(=O)[O-])c7cccnc67)cc5c5[n]4[Zn][n]4c(c6ccc(Oc7ccc(S(=O)(=O)[O-])c8cccnc78)cc6c4=CC3=N2)=CC2=NC(=C5)c3ccc(Oc4ccc(S(=O)(=O)[O-])c5cccnc45)cc32)c2ncccc12.[Na+].[Na+].[Na+].[Na+] [A6Zn]
681 nm

Note down λA, absorption maximum in the Q-band recorded for C[n+]1cccc(Oc2ccc3c(c2)C2=NC3=Nc3c4cc(Oc5ccc[n+](C)c5)ccc4c4[n]3[Zn][n]3c(c5ccc(Oc6ccc[n+](C)c6)cc5c3=NC3=NC(=N4)c4cc(Oc5ccc[n+](C)c5)ccc43)=N2)c1.[I-].[I-].[I-].[I-] [C5Zn-I]
674 nm

Specify reported λA, absorption maximum in the Q-band for the molecule shown: Cc1cc(Cn2cc[n+](C)c2)c(Oc2c3c(c(C)c(C)[n+]2C)C2=NC3=Nc3c4ccccc4c4[n]3[Zn][n]3c(c5ccccc5c3=N2)=NC2=NC(=N4)c3ccccc32)c(Cn2cc[n+](C)c2)c1.[I-].[I-].[I-] [C1Zn]
689 nm

Given the molecule Cc1cc(Cn2cc[n+](C)c2)c(Oc2cc3c(cc2Oc2c(Cn4cc[n+](C)c4)cc(C)cc2Cn2cc[n+](C)c2)C2=Nc4c5ccccc5c5[n]4[Zn][n]4c(c6ccccc6c4=NC3=N2)=NC2=NC(=N5)c3ccccc32)c(Cn2cc[n+](C)c2)c1.[I-].[I-].[I-].[I-] [C3Zn] , write its reported λA, absorption maximum in the Q-band.
673 nm
